Experiment: yeast transport mutant growth inhibition pilot in 384-well plates, post-Golgi transport modulator project (AID 636); also: test concentration not given here
Conditions: absorbance 615 nm, about 18 h, active compounds read high

{"compound": "CC(=O)Nc1cccc(NC(=O)CSc2nn3c(=O)c(C)nnc3s2)c1", "inhibition [%]": -5.73}
{"compound": "COc1cc(NC(=O)C2CCCN2S(=O)(=O)c2cccc3cccnc23)cc(OC)c1OC (stereo not drawn)", "inhibition [%]": -1.67}
{"compound": "COc1ccc(C)cc1S(=O)(=O)N1CCN(S(=O)(=O)c2cc(C)ccc2OC)CC1", "inhibition [%]": -5.47}
{"compound": "c1ccc(C2(Cn3ccc4ccccc43)OCCO2)cc1", "inhibition [%]": -0.78}
{"compound": "COc1ccc(C2CC(c3ccc(C)cc3)Nc3ncnn32)cc1 (stereo not drawn)", "inhibition [%]": -0.27}
{"compound": "Cc1cccc(-n2ncc3c(NCCCn4ccnc4)ncnc32)c1", "inhibition [%]": 2.13}
{"compound": "CCCn1cc(SCC(N)=O)c2ccccc21", "inhibition [%]": -4.93}
{"compound": "COc1ccc(-c2cnc(SCC(=O)Nc3ccc4c(c3)OCO4)n2Cc2ccco2)cc1", "inhibition [%]": 0.39}
{"compound": "Cc1cn2c(-c3ccc(Cl)cc3)nnc2s1", "inhibition [%]": -3.87}
{"compound": "CCCCSc1nc(CCC)cc(=O)[nH]1", "inhibition [%]": 2.05}
{"compound": "CCOC(=O)C1CCN(c2c(NC3CCCc4ccccc43)c(=O)c2=O)CC1 (stereo not drawn)", "inhibition [%]": 1.41}
{"compound": "Cn1c(=O)oc2cc(S(=O)(=O)N3CCN(c4ccccn4)CC3)ccc21", "inhibition [%]": 0.26}
{"compound": "O=S(=O)(c1ccc(F)cc1)N1CCC(N2CCCC2)CC1", "inhibition [%]": -4.4}
{"compound": "CN1CCN(Cc2nc3c(c(=O)n(C)c(=O)n3C)n2Cc2ccccc2Cl)CC1", "inhibition [%]": -5.07}
{"compound": "CCN(CC)CCCNC(=O)c1cn(C)c2ccc(S(=O)(=O)N(C)C)cc2c1=O", "inhibition [%]": -0.26}
{"compound": "O=C1NC(=O)C(CC(=O)N(Cc2ccco2)C2(C(=O)NC3CCCC3)CCCCC2)N1 (stereo not drawn)", "inhibition [%]": -7.95}
{"compound": "C=CCn1c(SC(C)C(=O)NC2(C#N)CCCCC2)nnc1-c1ccc(OC)cc1 (stereo not drawn)", "inhibition [%]": -7.07}
{"compound": "CCOc1ccc(C2CC(c3ccccc3C)n3nc(N)nc3N2)cc1 (stereo not drawn)", "inhibition [%]": -2.82}
{"compound": "O=C(c1cc2ccccc2oc1=O)N1CCN(c2ccc(N3CCOCC3)nn2)CC1", "inhibition [%]": -0.77}
{"compound": "COc1ccc(OCc2nc(C#N)c(N3CCN(c4ccc(OC)cc4)CC3)o2)cc1", "inhibition [%]": -3.07}
{"compound": "COCCn1cc(C(=O)c2ccccc2OCC(=O)Nc2cc(C)on2)cc(C#N)c1=O", "inhibition [%]": -2.76}
{"compound": "Cn1c(Cc2ccccc2)nnc1SCC(=O)NC1CCCCC1", "inhibition [%]": -6.08}
{"compound": "COC(=O)c1cn(C(=O)c2ccc(Br)o2)c2ccccc12", "inhibition [%]": 1.03}
